Experiment: clinical
Conditions: male, human, in vivo, po, 25 mg, AUC

{"columns": ["compound", "units", "AUC"],
 "data": [
  ["Nc1nc(=O)n(C2C=CC(CO)O2)cc1F [β-D-D4FC]", "µM·h", 8.12]
]}

====

Assay: Food effect, fed versus fasted crossover (Cohort 4)
Conditions: human, plasma, oral, 100 mg, t1/2 λz, 100 MG FASTED, coated tablet, PART B

{"columns": ["molecule", "half-life, h"],
 "data": [
  ["Nc1nc(=O)n(C2C=CC(CO)O2)cc1F [β-D-D4FC]", 8.61]
]}

====

Assay: clinical
Details: male, human, in vivo, 25 mg, tmax

{"columns": ["compound", "Tmax [h]"],
 "data": [
  ["Nc1nc(=O)n(C2C=CC(CO)O2)cc1F (stereo not shown)", 1.17]
]}

Taken from patent US20050244490A1.
